# tested.system: SARS-CoV-2 Spike on wild-type pseudotyped virus (PsV) (SARS-CoV-2, UniProt P0DTC2 14-1273)
# assay: cell-based or functional assay
value.type: IC50 SARS-CoV2 PsV (IgG) (µg/mL)
Give a bare numeral; the unit µg/mL is implied.

mAb 46 (antibody, V domains shown, also called IgG 46; Antibody 46) VH: EVQLLESGGGLVQPGRSLRLSCAASGFTFSSYAMSWVRQAPGKGLEWVSTIYSGGSTYYADSVKGRFTISRDNSKNTLYLQMNSLRAEDTAVYYCARGDSRDAFDIWGQGTMVTVSS VL: DIQMTQSPSSLSASVGDRVTITCRASQSISSWLAWYQQKPGKAPKLLIYDASNLETGVPSRFSGSGSGTDFTLTISSLQPEDFATYYCQQSYSTPFTFGPGTKVDIKR    2.1

Record summary for mAb 52 (antibody, V domains shown, also called IgG 52; Antibody 52) VH: QVQLVQSGAEVKKPGSSVKVSCKASGYTFTSYGISWVRQAPGQGLEWMGGIIPMFGTTNYAQKFQGRVTITADKSTSTAYMELSSLRSEDTAVYYCARDRGDTIDYWGQGTLVTVSS VL: DIQMTQSPSSLSASVGDRVTITCRASQGISNNLNWYQQKPGKAPKLLIYAASSLESGVPSRFSGSGSGTDFTLTISSLQPEDFATYYCQQGNGFPLTFGPGTKVDIKR : reported IC50 SARS-CoV2 PsV (IgG) = 0.55
